system: T cell lines against a natural (non-mutated) epitope (SSX-241-49); assay: Cross-reactivity and functional avidity: IFN-gamma from T cell lines against natural SSX-2 41-49 epitope; assay type: cell-based, HHD transgenic mice; details: IFN-gamma from T cell line raised against native SSX-2 41-49; native = 1, lower = more active;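 further: peptide analogs tested ex vivo with competent APCs, IFN-gamma in supernatant measured by ELISA, readouts include minimal triggering concentration, peak effect and concentration at peak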
Ends that are not written are not given here.
Reported Cross-reactivity and fct avidity (native to analogs)* is given for each of the following substances.

>  <substance>
FVSDKIFYV [SSX2 41-49 (K41F, A42V, E44D)]

>  <reading>
>10

$$$$
>  <substance>
K(D-Ala)SEKIFYV [SSX2 41-49 (A42(D-Ala))]

>  <reading>
10

$$$$
>  <substance>
KISEKIFYV [SSX2 41-49 (A42I)]

>  <reading>
3

$$$$
>  <substance>
KNal-1SEKIFYV [SSX2 41-49 (A42(Nal-1))]

>  <reading>
>10

$$$$
>  <substance>
KLSEKIFYI [SSX2 41-49 (A42L, V49I)]

>  <reading>
0.03

$$$$

Entry KVSEKIFYV [SSX2 41-49-NH2 (A42V)] : reported Cross-reactivity and fct avidity (native to analogs)* = ?
10

Follow-up entry: YASEKIFYV [SSX2 41-49 (K41Y)]
3
